# MEASUREMENT_TARGET: Myosin light chain kinase, smooth muscle (Gallus gallus, UniProt P11799)
# Sequence (P11799 whole entry): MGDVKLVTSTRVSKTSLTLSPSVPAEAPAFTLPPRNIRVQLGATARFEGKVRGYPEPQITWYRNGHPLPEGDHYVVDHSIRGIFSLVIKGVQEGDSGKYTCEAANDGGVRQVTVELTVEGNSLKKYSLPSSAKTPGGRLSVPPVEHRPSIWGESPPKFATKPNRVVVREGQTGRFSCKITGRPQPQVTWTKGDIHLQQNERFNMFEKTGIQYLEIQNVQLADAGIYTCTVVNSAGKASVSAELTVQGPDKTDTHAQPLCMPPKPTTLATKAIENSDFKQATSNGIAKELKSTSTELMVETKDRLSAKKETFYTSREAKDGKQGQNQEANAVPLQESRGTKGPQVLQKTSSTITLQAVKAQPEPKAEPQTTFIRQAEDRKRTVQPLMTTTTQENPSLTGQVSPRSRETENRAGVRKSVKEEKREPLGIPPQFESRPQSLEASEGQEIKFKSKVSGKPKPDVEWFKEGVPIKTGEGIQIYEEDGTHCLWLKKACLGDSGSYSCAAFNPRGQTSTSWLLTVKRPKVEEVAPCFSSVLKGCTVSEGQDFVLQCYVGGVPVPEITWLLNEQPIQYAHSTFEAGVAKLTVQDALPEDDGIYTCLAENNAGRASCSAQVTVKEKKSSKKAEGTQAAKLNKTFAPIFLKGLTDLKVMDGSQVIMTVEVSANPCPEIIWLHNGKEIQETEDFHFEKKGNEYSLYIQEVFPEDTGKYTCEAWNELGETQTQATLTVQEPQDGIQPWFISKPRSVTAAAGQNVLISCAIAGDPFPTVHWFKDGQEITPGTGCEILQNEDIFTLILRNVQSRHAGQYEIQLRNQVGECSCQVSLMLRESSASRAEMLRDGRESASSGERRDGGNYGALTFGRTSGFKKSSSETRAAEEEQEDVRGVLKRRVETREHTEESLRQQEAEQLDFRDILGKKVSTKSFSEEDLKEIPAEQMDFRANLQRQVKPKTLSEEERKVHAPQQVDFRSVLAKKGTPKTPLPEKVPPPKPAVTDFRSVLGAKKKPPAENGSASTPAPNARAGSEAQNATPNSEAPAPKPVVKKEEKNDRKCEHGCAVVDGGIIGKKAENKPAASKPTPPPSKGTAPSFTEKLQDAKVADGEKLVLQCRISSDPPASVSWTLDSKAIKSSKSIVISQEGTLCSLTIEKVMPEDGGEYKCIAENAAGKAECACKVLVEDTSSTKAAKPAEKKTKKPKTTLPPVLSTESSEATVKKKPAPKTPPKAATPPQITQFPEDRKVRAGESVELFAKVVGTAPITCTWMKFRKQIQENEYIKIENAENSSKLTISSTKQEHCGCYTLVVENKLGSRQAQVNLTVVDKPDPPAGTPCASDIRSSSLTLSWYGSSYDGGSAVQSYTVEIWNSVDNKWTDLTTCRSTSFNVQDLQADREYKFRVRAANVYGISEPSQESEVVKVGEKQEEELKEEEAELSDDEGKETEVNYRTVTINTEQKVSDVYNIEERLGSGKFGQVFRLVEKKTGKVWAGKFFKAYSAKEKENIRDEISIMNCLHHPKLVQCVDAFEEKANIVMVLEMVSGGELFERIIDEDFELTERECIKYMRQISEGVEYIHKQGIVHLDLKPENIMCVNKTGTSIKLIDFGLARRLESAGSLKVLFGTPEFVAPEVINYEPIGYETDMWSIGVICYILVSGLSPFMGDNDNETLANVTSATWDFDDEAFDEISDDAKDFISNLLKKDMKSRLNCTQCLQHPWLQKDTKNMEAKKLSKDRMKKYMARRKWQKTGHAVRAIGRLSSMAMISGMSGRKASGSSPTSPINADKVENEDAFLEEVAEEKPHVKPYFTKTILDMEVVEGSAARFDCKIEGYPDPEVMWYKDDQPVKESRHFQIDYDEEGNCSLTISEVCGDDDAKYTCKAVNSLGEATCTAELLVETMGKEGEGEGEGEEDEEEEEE
# ASSAY_NAME: Inhibition of native form of chicken MLCK (myosin light chain kinase)
Non-standard residues stand in square brackets, D forms with d. Residues, ends and D or L forms follow the SMILES beside them. *: point of attachment. 2Nal = N[C@@H](Cc1ccc2ccccc2c1)C(=O)O; OCH2CH2Ph = c1ccc(CCO*)cc1; OBn = c1ccc(CO*)cc1
This section presents molecules with their documented IC50 values.
Write the answer as a number in µM, unit excluded.

- CC(C)[C@H](NC(=O)[C@H](CC(N)=O)NC(=O)[C@H](N)CO)C(=O)N[C@@H](Cc1ccccc1)C(=O)N[C@@H](C)C(=O)OCc1ccccc1: 5
- CC(C)[C@H](NC(=O)[C@H](CC(N)=O)NC(=O)[C@@H](N)CO)C(=O)N[C@@H](Cc1ccccc1)C(=O)N[C@@H](C)C(=O)OCCc1ccccc1 (H-SNVFA-OCH2CH2Ph): 15

Attention now turns to another entry.
# input State its IC50 on Myosin light chain kinase, smooth muscle (Gallus gallus, UniProt P11799): CC(C)[C@H](NC(=O)[C@H](CC(N)=O)NC(=O)[C@@H](N)CO)C(=O)N[C@@H](Cc1ccc2ccccc2c1)C(=O)N[C@@H](C)C(=O)OCc1ccccc1 (H-SNV[2Nal]A-OBn)
# output 12

---

Listed next: entries and their corresponding pIC50.
# MEASUREMENT_TARGET: Myosin light chain kinase, smooth muscle (Gallus gallus, UniProt P11799)
# ASSAY_NAME: Inhibition of calmodulin-independent form of myosin light chain kinase isolated from chicken gizzard.
Residues, ends and D or L forms follow the SMILES beside them. *: point of attachment. OBn = c1ccc(CO*)cc1
Please report pIC50 as the negative decimal logarithm of the molar concentration, giving only the number.

# input Recall the recorded pIC50 for CC(C)[C@H](NC(=O)[C@H](CC(N)=O)NC(=O)[C@@H](N)CO)C(=O)N[C@@H](Cc1ccccc1)C(=O)N[C@H](C)C(=O)OCc1ccccc1 with Myosin light chain kinase, smooth muscle (Gallus gallus, UniProt P11799) and state it.
# output 4.19

# input Form field - read-out: pIC50; system: Myosin light chain kinase, smooth muscle (Gallus gallus, UniProt P11799); submitted item: C[C@H](NC(=O)[C@H](Cc1ccccc1)NC(=O)[C@@H](NC(=O)[C@H](CC(N)=O)NC(=O)[C@@H](N)CO)[C@@H](C)O)C(=O)OCc1ccccc1 (H-SNTFA-OBn)
# output 3.72

# input Checklist item: pIC50 tested on Myosin light chain kinase, smooth muscle (Gallus gallus, UniProt P11799), entry CC(C)[C@@H](CN[C@@H](Cc1ccccc1)C(=O)N[C@@H](C)C(=O)OCc1ccccc1)NC(=O)[C@H](CC(N)=O)NC(=O)[C@@H](N)CO , value?
# output 3.58

---

# MEASUREMENT_TARGET: Myosin light chain kinase, smooth muscle (Gallus gallus, UniProt P11799)
# ASSAY_NAME: Inhibition of native form of chicken MLCK (myosin light chain kinase)
Residues, ends and D or L forms follow the SMILES beside them. *: point of attachment. NHBn = c1ccc(CN*)cc1; OBn = c1ccc(CO*)cc1
RECORDED_ENDPOINT: IC50 (µM)
Entry rule: numbers only, all in µM.

- CC(C)[C@H](NC(=O)[C@H](CC(N)=O)NC(=O)[C@@H]1CCCN1)C(=O)N[C@@H](Cc1ccccc1)C(=O)N[C@@H](C)C(=O)OCc1ccccc1 (H-PNVFA-OBn): 200

# input Quick one: IC50 for CC(C)[C@H](NC(=O)[C@H](CC(N)=O)NC(=O)[C@@H](N)CS)C(=O)N[C@@H](Cc1ccccc1)C(=O)N[C@@H](C)C(=O)OCc1ccccc1 (H-CNVFA-OBn) ?
# output 8

# input For the compound CC(C)[C@H](NC(=O)[C@H](CC(N)=O)NC(=O)[C@@H](N)CO)C(=O)N[C@@H](Cc1ccccc1)C(=O)N[C@@H](C)C(=O)NCc1ccccc1 (H-SNVFA-NHBn) , what IC50 is on record?
# output 15

# input // lookup IC50 for C[C@H](NC(=O)[C@H](Cc1ccccc1)NC(=O)[C@H](Cc1ccccc1)NC(=O)[C@H](CC(N)=O)NC(=O)[C@@H](N)CO)C(=O)OCc1ccccc1 (H-SNFFA-OBn)
# output 50

# input What value of IC50 has been recorded for this entry: CSCC[C@H](NC(=O)[C@H](CC(N)=O)NC(=O)[C@@H](N)CO)C(=O)N[C@@H](Cc1ccccc1)C(=O)N[C@@H](C)C(=O)OCc1ccccc1 (H-SNMFA-OBn)
# output 30

---

# MEASUREMENT_TARGET: UniProt P11799
# ASSAY_NAME: Inhibition of calmodulin-independent form of myosin light chain kinase isolated from chicken gizzard.
pIC50: −log10 of the molar value. Non-standard residues stand in square brackets, D forms with d. Residues, ends and D or L forms follow the SMILES beside them. *: point of attachment. 1Nal = N[C@@H](Cc1cccc2ccccc12)C(=O)O; NHBn = c1ccc(CN*)cc1; OBn = c1ccc(CO*)cc1
Classification by pIC50 follows these ranges: bucket 1: < 4; bucket 2: ≥ 4 and < 5; bucket 3: ≥ 5

Check out these entries, answers already filled in.
- CC(C)[C@H](NC(=O)[C@@H](NC(=O)[C@@H](N)CO)C(C)C)C(=O)N[C@@H](Cc1ccccc1)C(=O)N[C@@H](C)C(=O)OCc1ccccc1 (H-SVVFA-OBn): bucket 2
- CC(C)[C@@H](/C=C/[C@@H](Cc1ccccc1)C(=O)N[C@@H](C)C(=O)OCc1ccccc1)NC(=O)[C@H](CC(N)=O)NC(=O)[C@@H](N)CO: bucket 2
- CC(C)[C@H](NC(=O)[C@H](CC(N)=O)NC(=O)[C@@H](N)CO)C(=O)N[C@@H](Cc1ccccc1)C(=O)N[C@@H](C)C(=O)NCc1ccccc1 (H-SNVFA-NHBn): bucket 2

# input Exam item: assign CC(C)[C@H](/C=C/[C@H](CC(N)=O)NC(=O)[C@@H](N)CO)C(=O)N[C@@H](Cc1ccccc1)C(=O)N[C@@H](C)C(=O)NCc1ccccc1 to the correct category.
# output bucket 1

# input Any idea which band CC(C)[C@H](NC(=O)[C@H](CC(N)=O)NC(=O)[C@@H](N)CO)C(=O)N[C@H](/C=C/C=C/c1ccccc1)Cc1ccccc1 is in?
# output bucket 3

# input Would you mind sorting CC(C)[C@@H](NC(=O)[C@@H](CC(N)=O)NC(=O)[C@@H](N)CO)C(=O)N[C@@H](Cc1ccccc1)C(=O)N[C@@H](C)C(=O)OCc1ccccc1 into the appropriate category?
# output bucket 1

# input Hi, small favor: classify CC(C)[C@H](NC(=O)[C@H](CC(N)=O)NC(=O)[C@@H](N)CO)C(=O)N[C@H](Cc1ccccc1)C(=O)N[C@@H](C)C(=O)OCc1ccccc1 by its pIC50 when you get a moment.
# output bucket 2

# input Category lookup for the compound CC(C)[C@H](NC(=O)[C@H](CC(N)=O)NC(=O)[C@@H](N)CO)C(=O)N[C@@H](Cc1cccc2ccccc12)C(=O)N[C@@H](C)C(=O)OCc1ccccc1 (H-SNV[1Nal]A-OBn)
# output bucket 3

# input Entry CC(C)[C@H](NC(=O)[C@H](C)NC(=O)[C@@H](N)CO)C(=O)N[C@@H](Cc1ccccc1)C(=O)N[C@@H](C)C(=O)OCc1ccccc1 (H-SAVFA-OBn) belongs to which category?
# output bucket 2

# input Using the reported pIC50, which band applies to CC(C)[C@H](NC(=O)[C@H](CC(N)=O)NC(=O)[C@@H](N)CO)C(=O)N[C@H](/C=C/C(CCCc1ccccc1)CCCc1ccccc1)Cc1ccccc1 ?
# output bucket 3

# input # bin label for CC(C)[C@H](NC(=O)[C@H](CC(N)=O)NC(=O)[C@@H](N)CO)C(=O)N[C@H](/C=C\[C@@H](C)COCc1ccccc1)Cc1ccccc1
# output bucket 2

---

# MEASUREMENT_TARGET: Myosin light chain kinase, smooth muscle (Gallus gallus, UniProt P11799)
# ASSAY_NAME: Inhibition of calmodulin-independent form of myosin light chain kinase isolated from chicken gizzard.
Non-standard residues stand in square brackets, D forms with d. Residues, ends and D or L forms follow the SMILES beside them. *: point of attachment. Bip = N[C@@H](Cc1ccc(-c2ccccc2)cc1)C(=O)O; OCH2CH2Ph = c1ccc(CCO*)cc1; OBn = c1ccc(CO*)cc1; X2 = CCCCO*
RECORDED_ENDPOINT: IC50 (µM)
Record the value in µM, omitting the unit from your answer.

As a guide, the following entries are already answered.
• CC(C)[C@H](NC(=O)[C@H](CC(N)=O)NC(=O)[C@@H](N)CO)C(=O)N[C@@H](Cc1ccc(-c2ccccc2)cc1)C(=O)N[C@@H](C)C(=O)OCc1ccccc1 (H-SNV[Bip]A-OBn) = 5
• CC(C)[C@H](NC(=O)[C@H](CC(N)=O)NC(=O)[C@@H](N)CO)C(=O)N[C@@H](Cc1ccccc1)C(=O)N[C@@H](C)C(=O)OCCc1ccccc1 (H-SNVFA-OCH2CH2Ph) = 50
• CC(C)[C@H](NC(=O)[C@H](CC(N)=O)NC(=O)[C@@H](N)CO)C(=O)N[C@H](CCCCc1ccccc1)Cc1ccccc1 = 12
• CCCCOC(=O)[C@H](C)NC(=O)[C@H](Cc1ccccc1)NC(=O)[C@@H](NC(=O)[C@H](CC(N)=O)NC(=O)[C@@H](N)CO)C(C)C (H-SNVFA-X2) = 185

# input Return reported IC50; argument: CC(C)[C@H](NC(=O)[C@H](CC(N)=O)NC(=O)[C@@H](N)CO)C(=O)N[C@H](/C=C/[C@@H](C)COCc1ccccc1)Cc1ccccc1
# output 23
